Give TGI for every item shown.
system: SK-OV-3 ovarian; test: NCI tumour cell line growth inhibition, 48 h

INSERT INTO measurements (compound, assay_result) VALUES
  ('CCOP(=O)(CC1OC(CO)C(O)C1O)OCC (stereo not given)', '> 100 µM');

Hey, quick one: what's TGI for each of these?
1. COc1ccc(-c2conc2-c2ccccc2)cc1
2. Cc1nnc(N=Nc2c(O)[nH]c3ccccc23)[nH]c1=O

1: > 100 µM; 2: > 100 µM

====

tested on: COLO 205 colon; assay: NCI tumour cell line growth inhibition, 48 h
experimental_endpoint: TGI

The examples below pair each entry with its known result.
INSERT INTO measurements (compound, assay_result) VALUES
  ('C=C[C@@]1(C)CC(=O)[C@]2(O)[C@@]3(C)[C@@H](O)CCC(C)(C)[C@@H]3[C@H](O)[C@@H](OC(C)=O)[C@@]2(C)O1', '> 100 µM'),
  ('C/C(=N\O)[C@H]1CC[C@@]2(C)[C@@H]3CC[C@H]4C(C)(C)/C(=N/O)CC[C@@]45CC35CC[C@]12C (stereo not given in full)', '> 16.7 µM');

Provide each entry's TGI from the list below.
1. N#Cc1ccnc(C(=O)N2CCCC2C(=O)O)c1 (stereo not given)
2. O=C1CCC(CCc2nc3ccccc3[nH]2)(c2ccccc2)C(=O)N1 (stereo not given)
3. COC(=O)c1ccc2cc(O)ccc2c1
4. COc1cc(/C=C2\C(=O)Nc3ccc(Br)cc32)cc(OC)c1OC
5. Cc1cc(C(=O)Nc2cc(Nc3ncccc3-c3ncnc4nc[nH]c34)ccc2F)cc(C(C)(C)C#N)c1
6. O=C(O)C12C3C4(C(=O)O)C1C1(C(=O)O)C2C3(C(=O)O)C41 (stereo not given)
7. CN1C(=O)CC2(C)c3cc(C=O)ccc3N(C)C12 (stereo not given)

> 100 µM
> 100 µM
> 100 µM
> 100 µM
> 100 µM
> 100 µM
> 100 µM

Quote COLO 205 colon TGI for entry OC(CCN1CCN(CCOC(c2ccc(F)cc2)c2ccc(F)cc2)CC1)c1ccc(Br)cc1 (stereo not given) .
3.84 µM

====

tested on: HOP-62 NSCLC; assay: NCI tumour cell line growth inhibition, 48 h
experimental_endpoint: TGI

Worked set:
INSERT INTO results (compound, experimental_endpoint, assay_result) VALUES
  ('CO[C@H](C)[C@](O)(C(=O)OCC1=CCN2CC[C@@H](O)[C@H]12)C(C)C', 'TGI', '> 100 µM'),
  ('CC(=O)OC1Oc2cc(C)c(C)cc2-c2oc(=O)c(-c3ccccc3)cc21 (stereo not given)', 'TGI', '21.9 µM'),
  ('COc1ccc(CCn2ccc(=O)c(O)c2C)cc1OC', 'TGI', '> 100 µM'),
  ('CNc1ccc(N=Nc2cccc3ncccc23)cc1', 'TGI', '> 100 µM');

# next compound below
State measured TGI of the compound CN1C(=O)CC2(C)c3cc(C=O)ccc3N(C)C12 (stereo not given) with HOP-62 NSCLC.
> 100 µM

====

tested on: SW-620 colon; assay: NCI tumour cell line growth inhibition, 48 h; in the data active = GI50 below about 0.43 µM; inactive = the rest
Could you please pick one outcome from this set? y = active, n = inactive

Consider the following illustrative entries.
INSERT INTO measurements (molecule, class_label) VALUES
  ('NCCn1c2c(c3ccccc3c1=O)C(=O)c1ccccc1-2', 'y'),
  ('CCOc1cccc(/C=N/NC(=O)Cc2ccc(Nc3ccnc(C(F)(F)F)c3)cc2)c1O', 'n'),
  ('CC[C@H](C)[C@H](NC(=O)N[C@@H](C)c1ccccc1)C(=O)N(C)[C@H](C[C@@H](OC(C)=O)c1nc(C(=O)N[C@@H](Cc2ccccc2)C[C@H](C)C(=O)OC)cs1)C(C)C', 'n'),
  ('O=c1ncccn1C1OC(CO)C(O)C1F (configuration not stated)', 'n'),
  ('COc1ccc(CNC(=O)c2ccc(-c3cc(-c4nnc(C)o4)ccc3C)cc2)cc1', 'n'),
  ('Cc1ccc2c(C(C[N+](=O)[O-])c3ccco3)c(-c3ccccc3)[nH]c2c1 (configuration not stated)', 'n'),
  ('Cc1cc([C@H](C)Nc2nccc(N3C(=O)OC[C@@H]3[C@H](C)F)n2)ncc1-c1ccnc(C(F)(F)F)c1', 'n'),
  ('Cc1cc(Nc2cc(N3CCN(C)CC3)nc(C#Cc3ccccc3)n2)n[nH]1', 'n'),
  ('O=C(Nc1nc2ccc(F)cc2s1)c1cccnc1Nc1ccc(Cl)cc1Cl', 'n'),
  ('N#CC1=C(N)NC(=S)C(C#N)C12Nc1ccccc1S2 (configuration not stated)', 'n');

Status in this test for `NC1(C(=O)O)CSSC1` ?
n

Which outcome did this test record for the molecule `Cc1cc(S(N)(=O)=O)c(S/C(=N\NS(=O)(=O)c2ccccc2)c2ccc(Cl)c(Cl)c2)cc1Cl` ?
n

====

tested on: MDA-N; assay: NCI tumour cell line growth inhibition, 48 h
Would you kindly list TGI for each of these compounds?

Before answering, review these 5 worked examples.
INSERT INTO measurements (compound, assay_result) VALUES
  ('O=C(O)Cn1c[n+](NC(=O)Cc2ccccc2)cn1', '> 10 µM'),
  ('Fc1cccc(F)c1C1SCc2nc3cc(Cl)ccc3n21 (stereo unspecified)', '> 100 µM'),
  ('C/C(N=NC(=S)N1CCCCCC1)=C1\C=CC=CN1O', '> 100 µM'),
  ('CC(C)NC(=O)OCc1c(COC(=O)NC(C)C)n(C)c2c1ccc1cc(Cl)c(Cl)cc12', '26.5 µM'),
  ('COc1cccc(Nc2nc3c([nH]2)c(=O)n(C)c(=O)n3C)c1', '> 10 µM');

Please look at the following compound next.
Provide TGI, system MDA-N, entry `C=CCN(c1cc(OC)c2[nH]c(C(=O)O)c(C)c2c1[N+](=O)[O-])S(C)(=O)=O`
> 100 µM

====

Answer each item with its documented TGI.
test system: 786-0 renal; assay: NCI tumour cell line growth inhibition, 48 h
One number for each entry, in µM.

Study these solved cases before continuing.
INSERT INTO assay_data (compound, assay_result) VALUES
  ('O=C1c2cccnc2C(=O)c2c1nc1ccccc1c2-c1ccc2c3c(nc4ccccc42)C(=O)c2cccnc2-c13', 1.91),
  ('Cc1cc2c(-c3nc4ccccn4c3NC34CC5CC(CC(C5)C3)C4)c(O)c(O)cc2c(O)c1-c1c(C)cc2c(-c3nc4ccccn4c3NC34CC5CC(CC(C5)C3)C4)c(O)c(O)cc2c1O', 5.09),
  ('CN1CCN(CCCOc2ccc3ncnc(Nc4ccc(Oc5cccc(F)c5)c(Cl)c4)c3c2)CC1', 3),
  ('CC1=CC(O)CC(C)(C)C1/C=C/C(C)=C/C=C/C(C)=C/C=C/C=C(C)/C=C/C=C(C)/C=C/C1=C(C)CC(O)CC1(C)C (configuration not stated)', 36.7),
  ('COc1ccc(-c2conc2-c2ccccc2)cc1', 53),
  ('COC(=O)C1=C(C(=O)OC)C(C(=O)OC)C(C(=O)OC)C(C(=O)OC)(C(=O)OC)C(C(=O)OC)=C1C(=O)OC (configuration not stated)', 26.3),
  ('CC1(C)Oc2ccccc2N2O[C@@H]3C(=O)N(c4ccccc4)C(=O)[C@@H]3C21c1ccccc1 (some centres not stated)', 30.3),
  ('Cc1nc2cc(Nc3nc(Nc4ccc(F)cc4)nc(-c4ccc(Cl)cc4)n3)ccc2n1Cc1ccccc1', 52.3),
  ('O=C(/C(=N/Nc1cn[nH]c(=O)c1Cl)c1ccccc1)c1ccccc1', 68.7),
  ('Clc1sc(Cl)c2c1[C@H](Br)C[C@@H]2Cl', 99.1);

Items follow; give TGI for each.
1. COc1ccc2c(c1)CCC(CN1CCN(CCOC(c3ccccc3)c3ccccc3)CC1)C2O (configuration not stated)
2. C/C(=C\CO)CC[C@@H]1[C@@]2(C)CCCC(C)(C)[C@@H]2CC[C@@]1(C)O
3. CN(C)CN1C(=O)/C(=N\n2c(-c3ccncc3)n[nH]c2=S)c2ccccc21
4. CCCCCCCCCCCCNC(=O)[C@H]1CSC(c2ccsc2)N1 (some centres not stated)

1. 32.6
2. 39.8
3. 41.6
4. 1.65

Report TGI, nothing else, for this compound: `COc1ccccc1-c1nccc(COc2ccccc2C[C@@H](Oc2ncnc3sc(-c4ccc(F)cc4)c(-c4ccc(OCCN5CCN(C)CC5)c(Cl)c4C)c23)C(=O)O)n1`
4.2

====

Would you kindly list TGI for each of these molecules?
test system: HCT-116 colon; test: NCI tumour cell line growth inhibition, 48 h

INSERT INTO measurements (molecule, system_tested, assay_result) VALUES
  ('Cc1nn(C(=O)c2ccccc2O)c2c1C(c1ccc([N+](=O)[O-])cc1)SC(N)=N2 (configuration not stated)', 'HCT-116 colon', '> 10 µM'),
  ('CC(C)c1ccc2c(c1)c(SC(C)(C)C)c(CC(C)(C)C(=O)O)n2Cc1ccc(Cl)cc1', 'HCT-116 colon', '25.6 µM');

Go through the list and state TGI for each entry.
1. CC(C)NC(=O)OCc1c(COC(=O)NC(C)C)n(C)c2c1ccc1cc(Cl)c(Cl)cc12
2. O=C(O)C(CS)N=Cc1nc(-c2ccccc2)oc1O (configuration not stated)
3. COc1ccc2c(c1)c(-c1cc(-c3cn(C)c4ccc(OC)cc34)[nH]n1)cn2C
4. Cc1cc(C)c2nccc(NCCCN(C)C)c2c1[N+](=O)[O-]

1. 24 µM
2. > 100 µM
3. > 100 µM
4. > 100 µM

Provenance of the data: PubChem BioAssay (NCI)
